Molecular target: fixed activated platelets (Homo sapiens, UniProt P05106+P08514)
Sequence (P08514 32-1039): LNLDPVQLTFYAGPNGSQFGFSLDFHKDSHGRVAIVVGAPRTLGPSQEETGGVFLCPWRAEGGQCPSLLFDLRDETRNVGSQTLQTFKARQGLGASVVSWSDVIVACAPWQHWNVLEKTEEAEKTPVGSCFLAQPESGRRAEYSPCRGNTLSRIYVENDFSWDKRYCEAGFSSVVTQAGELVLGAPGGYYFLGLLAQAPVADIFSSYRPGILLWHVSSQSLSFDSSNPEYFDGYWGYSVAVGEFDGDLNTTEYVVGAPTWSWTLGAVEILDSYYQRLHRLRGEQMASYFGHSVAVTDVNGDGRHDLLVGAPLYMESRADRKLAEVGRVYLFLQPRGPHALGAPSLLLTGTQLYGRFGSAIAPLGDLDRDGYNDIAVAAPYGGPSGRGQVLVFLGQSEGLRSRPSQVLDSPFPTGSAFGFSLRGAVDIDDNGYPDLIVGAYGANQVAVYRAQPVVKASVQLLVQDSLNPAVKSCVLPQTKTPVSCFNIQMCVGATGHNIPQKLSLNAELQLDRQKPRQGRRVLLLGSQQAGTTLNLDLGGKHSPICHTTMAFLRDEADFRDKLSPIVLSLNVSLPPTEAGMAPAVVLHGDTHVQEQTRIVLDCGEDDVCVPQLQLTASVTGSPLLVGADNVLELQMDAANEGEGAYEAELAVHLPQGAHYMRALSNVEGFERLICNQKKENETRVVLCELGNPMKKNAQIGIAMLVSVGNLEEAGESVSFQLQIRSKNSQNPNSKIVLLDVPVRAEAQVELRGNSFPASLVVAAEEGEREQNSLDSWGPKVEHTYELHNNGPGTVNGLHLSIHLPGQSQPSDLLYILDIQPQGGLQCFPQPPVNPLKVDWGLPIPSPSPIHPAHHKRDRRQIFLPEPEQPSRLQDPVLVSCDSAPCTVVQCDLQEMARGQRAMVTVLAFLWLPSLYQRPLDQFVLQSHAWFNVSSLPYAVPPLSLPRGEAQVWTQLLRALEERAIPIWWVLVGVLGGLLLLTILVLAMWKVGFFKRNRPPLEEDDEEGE
Sequence (P05106 27-788): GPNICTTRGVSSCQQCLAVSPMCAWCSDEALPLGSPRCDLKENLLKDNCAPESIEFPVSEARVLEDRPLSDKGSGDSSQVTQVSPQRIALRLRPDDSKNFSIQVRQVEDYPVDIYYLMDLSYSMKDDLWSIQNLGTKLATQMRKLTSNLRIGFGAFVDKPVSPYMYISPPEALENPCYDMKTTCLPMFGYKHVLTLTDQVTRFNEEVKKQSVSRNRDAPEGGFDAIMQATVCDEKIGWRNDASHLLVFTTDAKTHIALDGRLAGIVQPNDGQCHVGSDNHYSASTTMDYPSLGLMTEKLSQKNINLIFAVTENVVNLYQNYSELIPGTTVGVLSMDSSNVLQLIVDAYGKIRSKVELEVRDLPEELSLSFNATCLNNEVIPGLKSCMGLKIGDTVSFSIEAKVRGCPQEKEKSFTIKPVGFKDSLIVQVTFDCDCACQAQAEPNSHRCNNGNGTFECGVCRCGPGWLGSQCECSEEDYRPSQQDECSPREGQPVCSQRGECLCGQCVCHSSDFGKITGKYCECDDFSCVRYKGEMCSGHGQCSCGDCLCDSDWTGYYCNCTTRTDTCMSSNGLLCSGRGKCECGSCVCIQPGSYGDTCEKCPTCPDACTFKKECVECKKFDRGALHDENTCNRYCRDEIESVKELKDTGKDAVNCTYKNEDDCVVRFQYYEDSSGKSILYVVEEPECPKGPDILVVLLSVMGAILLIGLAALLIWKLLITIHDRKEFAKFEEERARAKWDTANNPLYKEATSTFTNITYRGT
Test: Platelet Aggregation Assay (fibrinogen-mediated aggregation of fixed-activated platelets)
Assay type: cell-based
Settings: fixed activated platelets, human fibrinogen 250 μg/ml; read-out: Inhibition of Fibrinogen Mediated Platelet Aggregation IC50
Residues, ends and D or L forms follow the SMILES beside them.
Range-based classes on measured IC50: category 1 (below 1000 nM), category 2 (1000 nM to below 6000 nM), category 3 (6000 nM or more)

The examples below pair each entry with its known result.
>>> class("CCN(CC(=O)N[C@@H](CC(=O)O)C(=O)N[C@H](C(=O)O)C(C)C)C(=O)CCCCCCn1ccnc1")
"category 3"
>>> class("CC(C)C[C@@H](CCC(=O)O)NC(=O)[C@H](CC(=O)O)NC(=O)CCCCCCCCNC(=N)N")
"category 3"
>>> class("CC[C@H](C)[C@H](NC(=O)CCNC(=O)[C@H](CC(=O)O)NC(=O)CCCCCCCCNC(=N)N)C(=O)O")
"category 3"
>>> class("CC(C)[C@H](NC(=O)[C@H](CC(=O)O)NC(=O)CN(C(=O)CCCCCNC(=N)N)C1CCCC1)C(=O)O")
"category 2"

Incoming: Entry CCN(CC(=O)N[C@@H](CC(=O)O)C(=O)N[C@@H](CC(C)C)C(=O)O)C(=O)CCCCNC(=N)N belongs to which category?
Outgoing: category 1

Incoming: Which IC50 category applies to CN(CC(=O)N[C@@H](CC(=O)O)C(=O)N[C@@H](CCCNC(=N)N)C(=O)O)C(=O)CCCCCNC(=N)N here?
Outgoing: category 2

Incoming: Kindly state the category for this compound: N=C(N)NCCCCCCCCC(=O)N[C@@H](CC(=O)O)C(=O)N[C@@H](CCCNC(=N)N)C(=O)O
Outgoing: category 1

Incoming: Tag the class for CC(C)[C@H](NC(=O)[C@H](CC(=O)O)NC(=O)[C@@H](N)CCCNC(=N)N)C(=O)O [L-arginyl-L-aspartyl-L-valine] (H-Arg-Asp-Val-OH)
Outgoing: category 3

Incoming: Given CCCC[C@H](NC(=O)[C@H](CC(=O)O)NC(=O)CCCCCCCCNC(=N)N)C(=O)N[C@@H](CCCNC(=N)N)C(=O)O , name the class its IC50 places it in.
Outgoing: category 1

Incoming: Exam item: assign CC(C)[C@H](NC(=O)[C@H](CC(=O)O)NC(=O)CNC(=O)CCCCNC(=N)N)C(=O)O to the correct category.
Outgoing: category 2

These data points were gathered from patent US5332726A.
